The origin of these recorded values is patent US8163909B2.

Assay: Microsomal stability assay, rat liver microsomes
Conditions: rat liver microsomal data
Short version: RLM at least 200 µL/min/mg is Met, less is Not met.

CO[C@H](C)C(=O)N[C@@H](Cc1ccc2c(c1)OCO2)[C@H](O)CN[C@H]1CC2(CCC2)Oc2ncc(CC(F)(F)F)cc21 [compound 519] = Not met
CCC(=O)N[C@@H](Cc1cc(F)cc(-c2nccs2)c1)[C@H](O)CN[C@H]1CC2(CCC2)Oc2ncc(CC(C)(C)C)cc21 [compound 860] = Not met
COCC(=O)N[C@@H](Cc1ccc2c(c1)OCO2)[C@H](O)CN[C@H]1CC2(CCC2)Oc2c(-c3ccccn3)cc(CC(C)C)cc21 [compound 767] = Not met
COCC(=O)N[C@@H](Cc1cc(F)cc(F)c1)[C@H](O)CN[C@H]1CC2(CCC2)Oc2c1cc(CC(C)(C)C)nc2Nc1cccnc1 [compound 568] = Met
CC#Cc1cnc2c(c1)[C@@H](NC[C@@H](O)[C@H](Cc1cccc(Br)c1)NC(=O)COC)CC1(CCC1)O2 [compound 812] = Met
CC(C)(C)Cc1cnc2c(c1)[C@@H](NC[C@@H](O)[C@H](Cc1cc(F)cc(-c3nccs3)c1)NC(=O)CF)CC1(CCC1)O2 [Example 878] = Not met
Cc1nc(CN2CCO[C@H](C(=O)N[C@@H](Cc3ccc(F)cc3)[C@H](O)CN[C@H]3CC4(CCC4)Oc4ncc(CC(C)(C)C)cc43)C2)cs1 [compound 762] = Met
CC1(C)C[C@H]1c1cnc2c(c1)[C@@H](NC[C@@H](O)[C@H](Cc1cccc(-c3nccs3)c1)NC(=O)[C@@H]1CCCO1)CC1(CCC1)O2 [compound 907] = Not met
COCC(=O)N[C@@H](Cc1ccc(F)cc1)[C@H](O)CN[C@H]1CC2(CCC2)Oc2c1cc(CC(C)(C)C)nc2-c1nccs1 [compound 451] = Met
CO[C@H](C)C(=O)N[C@@H](Cc1ccc2c(c1)OCO2)[C@H](O)CN[C@@H]1c2cc(CC(C)(C)C)cnc2OC2(CCC2)[C@H]1F [compound 539] = Not met
C#Cc1cc(C[C@H](NC(=O)COCC)[C@H](O)CN[C@H]2CC3(CCC3)Oc3ncc(CC(C)(C)C)cc32)ccc1F [Example 837] = Not met
COCC(=O)N[C@@H](Cc1cc(F)cc(F)c1)[C@H](O)CN[C@H]1CC2(CCC2)Oc2c(-c3ccncc3)cc(Cl)cc21 [compound 560] = Met
CCOCC(=O)N[C@@H](Cc1cccc(-c2nccs2)c1)[C@H](O)CN[C@H]1CC2(CCC2)Oc2ncc([C@@H]3CC3(C)C)cc21 [compound 914] = Not met
CC(C)(C)CCC(=O)N[C@@H](Cc1ccccc1)[C@H](O)CN[C@H]1CC2(CCC2)Oc2ncc(CC(C)(C)C)cc21 [compound 819] = Met
COC(OC)C(=O)N[C@@H](Cc1cccc(-c2ncco2)c1)[C@H](O)CN[C@H]1CC2(CCC2)Oc2ncc(CC(C)(C)C)cc21 [Example 826] = Not met
C#Cc1cc(C[C@H](NC(=O)C(OC)OC)[C@H](O)CN[C@H]2CC3(CCC3)Oc3ncc(CC(C)(C)C)cc32)ccc1F [Example 861] = Not met
COCC(=O)N[C@@H](Cc1cccc(-c2nccs2)c1)[C@H](O)CN[C@H]1CC2(CCC2)Oc2ncc([C@@H]3CC3(C)C)cc21 [compound 857] = Not met
COCC(=O)N[C@@H](Cc1cccc(F)c1)[C@H](O)CN[C@H]1CC2(CCC2)Oc2c1cc(CC(C)(C)C)nc2-c1ccncc1 [compound 531] = Not met
CCCc1cnc2c(c1)[C@@H](NC[C@H](O)[C@@H](Cc1cc(F)cc(-c3nccs3)c1)NC(=O)COC)CC1(CCC1)O2 [compound 833] = Not met
COCC(=O)N[C@@H](Cc1ccc2c(c1)OCO2)[C@H](O)CN[C@H]1CC2(CCC2)Oc2ncc(CCC(F)(F)F)cc21 [compound 445] = Not met
CC[C@H](OC)C(=O)N[C@@H](Cc1ccc(F)cc1)[C@H](O)CN[C@H]1CC2(CCC2)Oc2ncc(CC(C)(C)C)cc21 [compound 572] = Met
COCC(=O)N[C@@H](Cc1cccc(-c2ncco2)c1)[C@H](O)CN[C@H]1CC2(CCC2)Oc2ncc(CC(C)C)cc21 [compound 804] = Not met
COCC(=O)N[C@@H](Cc1ccc(F)cc1)[C@H](O)CN[C@H]1CC2(CCC2)Oc2ncc(C(F)(F)C(C)(C)C)cc21 [compound 569] = Met
COCC(=O)N[C@@H](Cc1cccc(F)c1)[C@H](O)CN[C@H]1CC2(CCC2)Oc2c(Br)cc(CC(C)C)cc21 [compound 514] = Met

----------
Test system: Aβ40 in conditioned medium of cells stably expressing Amyloid Precursor Protein (APP)
Experiment: In vitro BACE cell-based assay (Aβ40 in conditioned medium, sandwich ELISA);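 further: compounds added as a dilution series, secreted peptide quantified by europium time-resolved fluorescence readout, potency fitted from percent of control versus compound concentration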
Conditions: Homo sapiens, HEK293, HEK cell-based assay, IC50's in uM; read-out: HEK cell assay
Mark met only for IC50 values smaller than 0.03 µM; exact matches and larger values are not met.

CC#Cc1cnc2c(c1)[C@@H](NC[C@@H](O)[C@H](Cc1cccc(Br)c1)NC(=O)COC)CC1(CCC1)O2 = not met
CC#Cc1cccc(C[C@H](NC(=O)COC)[C@H](O)CN[C@H]2CC3(CCC3)Oc3ncc(CC(C)C)cc32)c1 = not met
CC(=S)N[C@@H](Cc1cccc(-c2nccs2)c1)[C@H](O)CN[C@H]1CC2(CCC2)Oc2ncc(CC(C)(C)C)cc21 = not met
CO[C@H](C)C(=O)N[C@@H](Cc1cccc(-c2nccs2)c1)[C@H](O)CN[C@H]1CC2(CCC2)Oc2ncc(CC(C)(C)F)cc21 = not met
COCC(=O)N[C@@H](Cc1cccc(-c2nc(C)cs2)c1)[C@H](O)CN[C@H]1CC2(CCC2)Oc2ncc(CC(C)(C)C)cc21 = met
CC(C)(C)Cc1cnc2c(c1)[C@@H](NC[C@@H](O)[C@H](Cc1ccc(F)cc1)NC(=O)[C@H]1CN(Cc3cscn3)CCO1)CC1(CCC1)O2 = met

----------
Assay: Microsomal stability assay, rat liver microsomes;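 further: rat liver microsomes (0.25 mg/mL) with about 1 µM compound plus 1 mM NADPH, pH 7.4, 37 °C for 30 min, parent left measured by LC-MS/MS against 0 min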
Conditions: rat liver microsomal data
readout: RLM (µL/min/mg)

CCCc1cnc2c(c1)[C@@H](NC[C@@H](O)[C@H](Cc1cc(F)cc(-c3nccs3)c1)NC(=O)COC)CC1(CCC1)O2 [compound 865] = 74
CC(C)(C)Cc1cnc2c(c1)[C@@H](NC[C@@H](O)[C@H](Cc1ccc(F)cc1)NC(=O)[C@H]1CCO1)CC1(CCC1)O2 [Example 440] = 242
CC(=S)N[C@@H](Cc1cccc(-c2nccs2)c1)[C@H](O)CN[C@H]1CC2(CCC2)Oc2ncc(CC(C)(C)C)cc21 [compound 793] = 60
COCC(=O)N[C@@H](Cc1cc(F)cc(-c2nccs2)c1)[C@H](O)CN[C@]1(C)CC2(CCC2)Oc2ncc(CC(C)(C)C)cc21 [compound 867] = 119
COCC(=O)N[C@@H](Cc1ccc(F)cc1)[C@H](O)CN[C@H]1CC2(CCC2)Oc2ncc(CC(C)(C)C#N)cc21 [compound 496] = 139
CO[C@H](C)C(=O)N[C@@H](Cc1cccc(F)c1)[C@H](O)CN[C@H]1CC2(CCC2)Oc2c1cc(CC(C)(C)C)nc2-c1ccncc1 [compound 533] = 163
CO[C@H](C)C(=O)N[C@@H](Cc1cc(F)cc(-c2nccs2)c1)[C@H](O)CN[C@H]1CC2(CCC2)Oc2ccc(CC(C)C)cc21 [compound 770] = 201
COC(OC)C(=O)N[C@@H](Cc1cccc(-c2nccs2)c1)[C@H](O)CN[C@H]1CC2(CCC2)Oc2ncc(CC(C)C)cc21 [Example 816] = 44
CC(C)(C)Cc1cnc2c(c1)[C@@H](NC[C@@H](O)[C@H](Cc1ccc3c(c1)OCO3)NC(=O)C1CCO1)CC1(CCC1)O2 (stereo partly drawn) [compound 503] = 130
COCC(=O)N[C@@H](Cc1ccc(-c2nccs2)cc1)[C@H](O)CN[C@H]1CC2(CCC2)Oc2ncc(CC(C)C)cc21 [Example 434] = 60
CO[C@H](C)C(=O)N[C@@H](Cc1ccc(F)c(-c2nccs2)c1)[C@H](O)CN[C@H]1CC2(CCC2)Oc2ncc(CC(C)C)cc21 [compound 768] = 70
CC(C)Cc1cnc2c(c1)[C@@H](NC[C@@H](O)[C@H](Cc1ccc3c(c1)OCO3)NC(=O)[C@H]1CCCO1)CC1(CCC1)O2 [compound 551] = 112
CO[C@H](C)C(=O)N[C@H](Cc1cc(F)cc(-c2nccs2)c1)[C@@H](O)CN[C@H]1CC2(CCC2)Oc2ncc(Br)cc21 [compound 821] = 243
CO[C@H](C)C(=O)N[C@@H](Cc1cc(F)cc(Cl)c1)[C@H](O)CN[C@H]1CC2(CCC2)Oc2ncc(CC(C)(F)F)cc21 [compound 820] = 324
CO[C@@H](C)C(=O)N[C@@H](Cc1ccc2c(c1)OCO2)[C@H](O)CN[C@H]1CC2(CCC2)Cc2sc(CC(C)(C)C)cc21 [compound 456] = 97
CC(C)(C)Cc1cnc2c(c1)[C@@H](NC[C@@H](O)[C@H](Cc1ccc(F)cc1)NC(=O)[C@H]1CN(Cc3cscn3)CCO1)CC1(CCC1)O2 [compound 774] = 57
CC(C)Cc1cnc2c(c1)[C@@H](NC[C@@H](O)[C@H](Cc1ccc3c(c1)OCO3)NC(=O)[C@@H]1CCCO1)CC1(CCC1)O2 [compound 548] = 184
COCC(=O)N[C@@H](Cc1cccc(F)c1)[C@H](O)CN[C@H]1CC2(CCC2)Oc2c1cc(Cl)cc2-n1ccnc1 [compound 553] = 86
C#Cc1cccc(C[C@H](NC(=O)COC)[C@H](O)CN[C@H]2C[C@@]3(CCOC3)Oc3ncc(CC(C)(C)C)cc32)c1 [compound 825] = 85
CC(C)(C)Cc1cnc2c(c1)[C@@H](NC[C@@H](O)[C@H](Cc1ccc3c(c1)OCO3)NC(=O)C1CCS(=O)(=O)C1)CC1(CCC1)O2 (stereo partly drawn) [compound 779] = 66
COCC(=O)N[C@@H](Cc1ccc(-c2nccs2)c(F)c1)[C@H](O)CN[C@H]1CC2(CCC2)Oc2ncc(CC(C)C)cc21 [compound 787] = 79
CO[C@H](C)C(=O)N[C@@H](Cc1cc(F)cc(F)c1)[C@H](O)CN[C@H]1CC2(CCC2)Oc2c1cc(CC(C)C)cc2-n1ccnc1 [compound 461] = 126
COCC(=O)N[C@@H](Cc1cccc(-c2nccs2)c1)[C@H](O)CN[C@@H]1C[C@@]2(CCOC2)Oc2ncc(CC(C)(C)C)cc21 [compound 827] = 197
CC(C)(C)Cc1cnc2c(c1)[C@@H](NC[C@@H](O)[C@H](Cc1ccc3c(c1)OCO3)NC(=O)C(C)(C)C)CC1(CCC1)O2 [compound 882] = 103
